Tested on: human GPBAR1 receptor (Homo sapiens)
Construct: expressed in transfected cells
Experiment description: functional cAMP assay in CHO-dhfr(minus) cells expressing human GPBAR1 receptors
Format: cell-based
Run conditions: cAMP increase (TR-FRET) in CHO-dhfr(minus) cells expressing human GPBAR1; compounds incubated 30 min at 30° C.
Checkbox rule: EC50 lower than 700 nM = condition met; EC50 not lower than 700 nM = condition not met.

INSERT INTO measurements (molecule, category_label) VALUES
  ('O=C(c1cccnc1Oc1cc(C(F)(F)F)cc(Cl)c1F)N1CCCc2ccccc21 [Example 22]', 'condition met'),
  ('O=C(c1cccnc1Oc1cc(Cl)cc(Cl)c1)N1CCCc2ccccc21 [Example 17]', 'condition met'),
  ('Cc1ccc(N(C)C(=O)c2cccnc2Oc2cc(Cl)ccc2Cl)c(C)c1 [Example 58]', 'condition not met'),
  ('Cc1c(Cl)cccc1N(C)C(=O)c1cccnc1Oc1cc(Cl)ccc1Cl [Example 49]', 'condition met'),
  ('O=C(O)c1ccc(CCc2cc(Cl)c(Oc3ncccc3C(=O)N3CCN(C4CC4)c4ccccc43)cc2Cl)cc1Cl [Example 169]', 'condition met'),
  ('CN(C(=O)c1cccnc1Oc1cc(Cl)ccc1Cl)c1ccccc1-n1cccc1 [Example 65]', 'condition met'),
  ('O=C(c1cccnc1Oc1cc(Cl)ccc1Cl)N1CC2CCCN2c2ccccc21 (centres unmarked) [Example 136]', 'condition met'),
  ('O=C(O)c1ccc(C#Cc2cc(Cl)c(Oc3ncccc3C(=O)N3CCN(C4CC4)c4ccccc43)cc2Cl)cc1Cl [Example 168]', 'condition not met');

====

Tested on: human GPBAR1 receptor (Homo sapiens, UniProt Q8TDU6)
Sequence (Q8TDU6 1-330): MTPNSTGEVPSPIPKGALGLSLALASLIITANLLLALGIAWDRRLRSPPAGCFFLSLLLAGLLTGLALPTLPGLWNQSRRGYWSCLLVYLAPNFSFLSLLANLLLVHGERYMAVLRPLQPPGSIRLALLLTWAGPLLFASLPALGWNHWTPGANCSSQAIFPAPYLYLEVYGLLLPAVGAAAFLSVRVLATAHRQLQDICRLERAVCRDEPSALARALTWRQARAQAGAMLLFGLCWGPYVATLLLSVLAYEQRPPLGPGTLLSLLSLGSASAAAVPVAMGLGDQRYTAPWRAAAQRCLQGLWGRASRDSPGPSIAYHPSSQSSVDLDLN
Experiment description: functional cAMP assay in CHO-dhfr(minus) cells expressing human GPBAR1 receptors
Run conditions: cAMP increase (TR-FRET) in CHO-dhfr(minus) cells expressing human GPBAR1; compounds incubated 30 min at 30° C.
Endpoint: EC50 (nM)

INSERT INTO results (structure_smiles_string, val) VALUES
  ('O=C(c1cc(F)cnc1Oc1cccc(Cl)c1)N1CCCc2cc(F)c(F)cc21', 231),
  ('O=C(c1ccccc1Oc1cc(Cl)ccc1Cl)N1CCN(C2CC2)c2ccccc21', 22),
  ('Cc1ccnc(Cl)c1N(C)C(=O)c1cccnc1Oc1cc(Cl)ccc1Cl', 566),
  ('COc1ccc(F)cc1N(C)C(=O)c1cccnc1Oc1cc(Cl)ccc1Cl', 35),
  ('O=C(c1cccnc1Oc1cc(Cl)ccc1Cl)N1CCOc2ccccc21', 135);

====

Tested on: human GPBAR1 receptor (Homo sapiens, UniProt Q8TDU6)
Construct: expressed in transfected cells
Experiment description: functional cAMP assay in CHO-dhfr(minus) cells expressing human GPBAR1 receptors
Assay type: cell-based
Run conditions: cAMP increase (TR-FRET) in CHO-dhfr(minus) cells expressing human GPBAR1; compounds incubated 30 min at 30° C.
Readings of EC50 for the listed compounds
Endpoint: EC50 (nM)

INSERT INTO measurements (compound, tested_on, endpoint, val) VALUES
  ('O=C(c1cc(F)cnc1Oc1cc(Cl)ccc1Cl)N1CCOc2ccccc21 [Example 81]', 'human GPBAR1 receptor (Homo sapiens, UniProt Q8TDU6)', 'EC50', 78),
  ('CN(C(=O)c1cccnc1Oc1cc(Cl)ccc1Cl)c1cc(Cl)ccc1Cl [Example 135]', 'human GPBAR1 receptor (Homo sapiens, UniProt Q8TDU6)', 'EC50', 473),
  ('Cc1cccc(C)c1N(C)C(=O)c1cccnc1Oc1cc(Cl)ccc1Cl [Example 52]', 'human GPBAR1 receptor (Homo sapiens, UniProt Q8TDU6)', 'EC50', 116),
  ('O=C(c1cc(F)ccc1Oc1cc(Cl)ccc1Cl)N1CCCc2ccccc21 [Example 113]', 'human GPBAR1 receptor (Homo sapiens, UniProt Q8TDU6)', 'EC50', 149),
  ('O=C(c1ccccc1)c1cccc(Oc2ncccc2C(=O)N2CCCc3ccccc32)c1 [Example 15]', 'human GPBAR1 receptor (Homo sapiens, UniProt Q8TDU6)', 'EC50', 1690),
  ('COc1ccncc1N(C)C(=O)c1cccnc1Oc1cc(Cl)ccc1Cl [Example 75]', 'human GPBAR1 receptor (Homo sapiens, UniProt Q8TDU6)', 'EC50', 1580),
  ('O=C(O)CCNC(=O)CCCc1cc(Cl)c(Oc2ncccc2C(=O)N2CCN(C3CC3)c3ccccc32)cc1Cl [Example 181]', 'human GPBAR1 receptor (Homo sapiens, UniProt Q8TDU6)', 'EC50', 91),
  ('Cc1ccc2c(c1)CCCN2C(=O)c1cccnc1Oc1cccc(C(F)(F)F)c1 [Example 4]', 'human GPBAR1 receptor (Homo sapiens, UniProt Q8TDU6)', 'EC50', 1400),
  ('Cc1ccc(Cl)cc1N(C)C(=O)c1cccnc1Oc1cc(Cl)ccc1Cl [Example 50]', 'human GPBAR1 receptor (Homo sapiens, UniProt Q8TDU6)', 'EC50', 631),
  ('CN(C(=O)c1cccnc1Oc1cc(Cl)ccc1Cl)c1ccccc1N [Example 134]', 'human GPBAR1 receptor (Homo sapiens, UniProt Q8TDU6)', 'EC50', 1650),
  ('O=C(c1cccnc1Oc1cc(Cl)ccc1Cl)N1CCSc2ccccc21 [Example 39]', 'human GPBAR1 receptor (Homo sapiens, UniProt Q8TDU6)', 'EC50', 29),
  ('O=C(c1cccnc1Oc1cc(Cl)ccc1Cl)N1CCN(CC2CCC2)c2ccccc21 [Example 139]', 'human GPBAR1 receptor (Homo sapiens, UniProt Q8TDU6)', 'EC50', 926),
  ('O=C(c1cc(F)cnc1Oc1cc(Cl)ccc1Cl)N1CCN(CC2CCC2)c2ccccc21 [Example 152]', 'human GPBAR1 receptor (Homo sapiens, UniProt Q8TDU6)', 'EC50', 689),
  ('O=C(c1cccnc1Oc1cc(Cl)ccc1Cl)N1CCN(C2COC2)c2ccccc21 [Example 127]', 'human GPBAR1 receptor (Homo sapiens, UniProt Q8TDU6)', 'EC50', 14),
  ('COC(=O)c1ccc(C#Cc2cc(Cl)c(Oc3ncccc3C(=O)N3CCN(C4CC4)c4ccccc43)cc2Cl)cc1Cl [Example 167]', 'human GPBAR1 receptor (Homo sapiens, UniProt Q8TDU6)', 'EC50', 211),
  ('Cc1ccc(Cl)cc1Oc1ncccc1C(=O)N1CCCc2ccccc21 [Example 11]', 'human GPBAR1 receptor (Homo sapiens, UniProt Q8TDU6)', 'EC50', 153),
  ('CN(C(=O)c1cccnc1Oc1cc(Cl)ccc1Cl)c1ccc(F)cc1F [Example 66]', 'human GPBAR1 receptor (Homo sapiens, UniProt Q8TDU6)', 'EC50', 518),
  ('CCOC(=O)CN1CCN(C(=O)c2cccnc2Oc2cc(Cl)ccc2Cl)c2ccccc21 [Example 141]', 'human GPBAR1 receptor (Homo sapiens, UniProt Q8TDU6)', 'EC50', 324);

====

Tested on: human GPBAR1 receptor (Homo sapiens)
Experiment description: functional cAMP assay in CHO-dhfr(minus) cells expressing human GPBAR1 receptors
Run conditions: cAMP increase (TR-FRET) in CHO-dhfr(minus) cells expressing human GPBAR1; compounds incubated 30 min at 30° C.
pEC50: −log10 of the molar value.
Endpoint: pEC50

INSERT INTO measurements (compound, tested_on, val) VALUES
  ('O=C(c1cc(F)cnc1Oc1cc(Cl)ccc1Cl)N1CCN(CCC(F)(F)F)c2ccccc21', 'human GPBAR1 receptor (Homo sapiens)', 6.25),
  ('O=C(O)CN1CCN(C(=O)c2cc(F)cnc2Oc2cc(Cl)ccc2Cl)c2ccccc21', 'human GPBAR1 receptor (Homo sapiens)', 6.10),
  ('O=C(c1cccnc1Oc1cccc(F)c1)N1CCCc2ccccc21', 'human GPBAR1 receptor (Homo sapiens)', 6.49),
  ('COC(=O)c1cc(Cl)c(Oc2ncccc2C(=O)N2CCN(C3CC3)c3ccccc32)cc1Cl', 'human GPBAR1 receptor (Homo sapiens)', 6.74),
  ('O=C(c1cccnc1Oc1cccc(C(F)(F)F)c1)N1CCCc2ccccc21', 'human GPBAR1 receptor (Homo sapiens)', 6.40),
  ('O=C(c1ccncc1Oc1cc(Cl)ccc1Cl)N1CCCc2ccccc21', 'human GPBAR1 receptor (Homo sapiens)', 8.15),
  ('O=C(c1cccnc1Oc1cc(Cl)ccc1Cl)N1CCCc2cc(F)cc(F)c21', 'human GPBAR1 receptor (Homo sapiens)', 7.36),
  ('CC1CCc2ccccc2N1C(=O)c1cc(F)cnc1Oc1cc(Cl)ccc1Cl (stereo not drawn)', 'human GPBAR1 receptor (Homo sapiens)', 6.20),
  ('Cc1ccc2c(c1)CCCN2C(=O)c1cccnc1Oc1ccc(F)c(Cl)c1', 'human GPBAR1 receptor (Homo sapiens)', 6.12),
  ('CN(C(=O)c1ccncc1Oc1ccc(Cl)cc1Cl)c1ccccc1Cl', 'human GPBAR1 receptor (Homo sapiens)', 5.98),
  ('O=C(c1ccncc1Oc1cc(Cl)ccc1Cl)N1CCOc2ccccc21', 'human GPBAR1 receptor (Homo sapiens)', 7.04),
  ('O=C1CCCN(C(=O)c2cc(F)cnc2Oc2cc(Cl)ccc2Cl)c2ccccc21', 'human GPBAR1 receptor (Homo sapiens)', 5.90),
  ('Cc1cc(Cl)ncc1N(C)C(=O)c1cccnc1Oc1cc(Cl)ccc1Cl', 'human GPBAR1 receptor (Homo sapiens)', 5.70),
  ('O=C(c1ccncc1Oc1cc(Cl)ccc1Cl)N1CCCc2cc(F)ccc21', 'human GPBAR1 receptor (Homo sapiens)', 7.82),
  ('CCN(C(=O)c1cc(F)cnc1Oc1cc(Cl)ccc1Cl)c1ccccc1', 'human GPBAR1 receptor (Homo sapiens)', 6.16),
  ('Cc1ccccc1N(C)C(=O)c1ccncc1Oc1ccc(F)c(Cl)c1', 'human GPBAR1 receptor (Homo sapiens)', 6.37),
  ('CN(C(=O)c1cccnc1Oc1cc(Cl)ccc1Cl)c1ccccc1C#N', 'human GPBAR1 receptor (Homo sapiens)', 6.09),
  ('COc1cc(C(=O)O)ccc1CCc1cc(Cl)c(Oc2ncccc2C(=O)N2CCN(C3CC3)c3ccccc32)cc1Cl', 'human GPBAR1 receptor (Homo sapiens)', 6.99),
  ('O=C(c1cc(Cl)cnc1Oc1cc(F)ccc1F)N1CCCc2ccccc21', 'human GPBAR1 receptor (Homo sapiens)', 5.70),
  ('O=C(c1cccnc1Oc1cc(Cl)c(Br)cc1Cl)N1CCCc2ccccc21', 'human GPBAR1 receptor (Homo sapiens)', 6.47),
  ('COc1ncccc1N(C)C(=O)c1ccncc1Oc1ccc(F)c(Cl)c1', 'human GPBAR1 receptor (Homo sapiens)', 6.25),
  ('Cc1ccccc1N(C)C(=O)c1cccnc1Oc1cc(Cl)ccc1Cl', 'human GPBAR1 receptor (Homo sapiens)', 7.48),
  ('O=C(c1cc(F)cnc1Oc1ccc(F)c(Cl)c1)N1CCCc2cc(F)c(F)cc21', 'human GPBAR1 receptor (Homo sapiens)', 7.12),
  ('O=C(c1cccnc1Oc1cc(Cl)ccc1Cl)N1CCOc2ccc(F)cc21', 'human GPBAR1 receptor (Homo sapiens)', 6.79),
  ('Cc1ccc2c(c1)CCCN2C(=O)c1cccnc1Oc1cccc(Cl)c1', 'human GPBAR1 receptor (Homo sapiens)', 6.19),
  ('O=C(c1cccnc1Oc1cc(C(F)(F)F)ccc1F)N1CCCc2ccccc21', 'human GPBAR1 receptor (Homo sapiens)', 6.54),
  ('O=C(c1cccnc1Oc1ccc(F)c(Cl)c1)N1CCCc2ccccc21', 'human GPBAR1 receptor (Homo sapiens)', 7.28),
  ('O=C(c1cccnc1Oc1cc(Cl)ccc1Cl)N1CCN(C2CCC2)c2ccccc21', 'human GPBAR1 receptor (Homo sapiens)', 8.00),
  ('O=C(c1cccnc1Oc1cccc(Br)c1)N1CCCc2ccccc21', 'human GPBAR1 receptor (Homo sapiens)', 6.63),
  ('COC(=O)CCC#Cc1cc(Cl)c(Oc2ncccc2C(=O)N2CCCc3ccccc32)cc1Cl', 'human GPBAR1 receptor (Homo sapiens)', 6.83),
  ('O=C(c1cc(F)ccc1Oc1cc(Cl)ccc1Cl)N1CCOc2ccccc21', 'human GPBAR1 receptor (Homo sapiens)', 6.24),
  ('COc1ccccc1N(C)C(=O)c1ccncc1Oc1ccc(F)c(Cl)c1', 'human GPBAR1 receptor (Homo sapiens)', 6.91),
  ('COc1ccccc1N(C)C(=O)c1ccncc1Oc1cc(Cl)ccc1Cl', 'human GPBAR1 receptor (Homo sapiens)', 7.55),
  ('CN(C(=O)c1cccnc1Oc1cc(Cl)ccc1Cl)c1ccccc1Cl', 'human GPBAR1 receptor (Homo sapiens)', 6.99),
  ('CSc1ccccc1N(C)C(=O)c1cccnc1Oc1cc(Cl)ccc1Cl', 'human GPBAR1 receptor (Homo sapiens)', 7.18),
  ('Cc1cc(F)c2c(c1)CCCN2C(=O)c1cccnc1Oc1cc(Cl)ccc1Cl', 'human GPBAR1 receptor (Homo sapiens)', 6.08);
